# runDescription: Toxicity in ip dosed mouse assessed as behavioral changes and death during observation up to 72 hrs
# Type: organism-based
# conditionNotes: in vivo
Cut-off 10000 µmol/kg on LD50 at 72 h: below means 1.0, at or above means 0.0.

>  <smilesCode>
CC(=O)c1nn(-c2ccc(S(N)(=O)=O)cc2)c(-c2ccc(Br)cc2)c1S(=O)(=O)c1ccccc1

>  <assignedLabel>
1.0

$$$$
>  <smilesCode>
O=S(=O)(C/C(=N/O)c1ccccc1)c1ccccc1

>  <assignedLabel>
0.0

$$$$
>  <smilesCode>
Cc1ccc(S(=O)(=O)CC(=O)c2ccc(Br)cc2)cc1

>  <assignedLabel>
0.0

$$$$
>  <smilesCode>
O=C(CS(=O)(=O)c1ccccc1)c1ccc(Br)cc1

>  <assignedLabel>
0.0

$$$$
>  <smilesCode>
Cc1ccc(/C(CS(=O)(=O)c2ccccc2)=N\O)cc1

>  <assignedLabel>
1.0

$$$$
>  <smilesCode>
CC(=O)c1nn(-c2ccc(S(N)(=O)=O)cc2)c(-c2ccc(Br)cc2)c1S(=O)(=O)c1ccc(C)cc1

>  <assignedLabel>
1.0

$$$$
>  <smilesCode>
Cc1ccc(/C(CS(=O)(=O)c2ccccc2)=N\Nc2ccccc2)cc1

>  <assignedLabel>
0.0

$$$$
>  <smilesCode>
Cc1ccc(C(=O)CS(=O)(=O)c2ccccc2)cc1

>  <assignedLabel>
0.0

$$$$
>  <smilesCode>
O=S(=O)(C/C(=N/Nc1ccccc1)c1ccccc1)c1ccccc1

>  <assignedLabel>
0.0

$$$$
>  <smilesCode>
O=C(CS(=O)(=O)c1ccccc1)c1ccccc1

>  <assignedLabel>
0.0

$$$$

----------
# Tested on: Rattus norvegicus
# runDescription: Gastrointestinal toxicity in albino rat assessed as ulcer index at 100 umol/kg, po qd for 3 days measured 6 hrs after last dose
# conditionNotes: in vivo, 100 µmol/kg

>  <smilesCode>
CC(=O)c1nn(-c2ccc(S(N)(=O)=O)cc2)c(-c2ccc(Br)cc2)c1S(=O)(=O)c1ccc(C)cc1

>  <UI>
0.98

$$$$
>  <smilesCode>
CC(=O)c1nn(-c2ccc(S(N)(=O)=O)cc2)c(-c2ccc(C)cc2)c1S(=O)(=O)c1ccccc1

>  <UI>
2.25

$$$$
>  <smilesCode>
Cc1ccc(-c2cc(C(F)(F)F)nn2-c2ccc(S(N)(=O)=O)cc2)cc1

>  <UI>
0.92

$$$$
>  <smilesCode>
CC(=O)c1nn(-c2ccc(S(N)(=O)=O)cc2)c(-c2ccc(Br)cc2)c1S(=O)(=O)c1ccccc1

>  <UI>
2.86

$$$$

----------
# runDescription: Toxicity in ip dosed mouse assessed as behavioral changes and death during observation up to 72 hrs
# Type: organism-based
# conditionNotes: in vivo
measuredEndpoint: LD50 at 72 h (µmol/kg)

>  <smilesCode>
Cc1ccc(-c2cc(C(F)(F)F)nn2-c2ccc(S(N)(=O)=O)cc2)cc1

>  <measuredEndpoint>
LD50 at 72 h

>  <unitsText>
µmol/kg

>  <measuredNumber>
9800

$$$$
>  <smilesCode>
CC(=O)c1nn(-c2ccc(S(N)(=O)=O)cc2)c(-c2ccccc2)c1S(=O)(=O)c1ccccc1

>  <measuredEndpoint>
LD50 at 72 h

>  <unitsText>
µmol/kg

>  <measuredNumber>
10100

$$$$
>  <smilesCode>
CC(=O)c1nn(-c2ccc(S(N)(=O)=O)cc2)c(-c2ccc(C)cc2)c1S(=O)(=O)c1ccccc1

>  <measuredEndpoint>
LD50 at 72 h

>  <unitsText>
µmol/kg

>  <measuredNumber>
10100

$$$$

Data origin, for the record: ChEMBL document CHEMBL3259668
